Catalogue of binders with associated pKd
Target: T1, recombinant human RNF43 extracellular domain (human, UniProt Q68DV7 24-197)
T1 construct: extracellular domain; also called huRNF43; human RNF43 ECD
T1 sequence (looked up): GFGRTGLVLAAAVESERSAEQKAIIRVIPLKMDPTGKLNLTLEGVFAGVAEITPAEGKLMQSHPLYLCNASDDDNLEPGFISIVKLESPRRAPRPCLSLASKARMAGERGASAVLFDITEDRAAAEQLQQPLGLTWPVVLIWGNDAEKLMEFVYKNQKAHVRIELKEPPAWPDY
Experiment: SPR Biacore 8K; antibody captured on Protein A; RNF43 ECD analyte; 25 C
pKd: −log10 of the molar value.
REPORTED ENDPOINT: pKd

BINDER	EXPERIMENTAL VALUE
RNF43-74 (antibody, V domains shown, Rat clone; VH/VL only) VH: EVQLVESGGDLVQPGRSLTLSCAASGFTFSDYYMAWVRQAPKKGLEWVASITYEGSSTYYGDSVKGRFTISRDNTKSTLYLLMNSLRSDDTATYYCARHGAHYTYNYAYYFDYWGQGVMVTVSS VL: DIMLTQSPTTLSVIPGENISLSCRASQSVGTNLHWYQQKPSESPRVLINYASQSISGIPSRFSGSGSGTDFTLNINRVEPEDSSVYYCQQSKSWPFTFGSGTKLEIK	9.46
RNF43-156 (antibody, V domains shown, Rat clone; VH/VL only) VH: EVQLKESGPGLVQPSQTLSLTCTVSGFSLTDYSVYWVRQPPGKGLEWMGVMWRGGTTAYNSALKSRLSISRDTSKSQVFLKMNSLQTEDTAIYYCTRGGKYDGTYYYGWYFDFWGPGTMVTVSS VL: DVVLTQSPATLSVTPGERISLSCRASESVDTYLYWYQQKPNESPRLLIKYASQSISGIPSRFSGSGSGTDFTLSINGVELEDLSIYYCQQGNSLPLTFGSGTKLEIK	9.68
RNF43-217 (antibody, V domains shown, Rat clone; VH/VL only) VH: EVQLQESGPGLVKPSQSLSLTCSVTGFSITSSHRWNWIRKFPGNKLEWMGYINSAGSTNYNPSLKSRVSITRDASKNQFFLQVNSVTTEDTATYYCTRLGLQYRDFDYWGQGVMVTVSS VL: DIQMTQSPASLSASLGETISIECRASDDIYSNLAWYQQKSGKSPQLLIYAANRLKDGVPSRFSGSGSGTQYSLKISGMETEDEGDYFCLQASKFPLTFGSGTKLEIK	8.83
RNF43-210 (antibody, V domains shown, Rat clone; VH/VL only) VH: QIQLVQSGPELKKPEESVKISCKASGYIFTDYLIHWVKQAPGEGLKWMGWINTYTGKPTYADDFKGRFVFSLEASASTAILQISNLKNEDTATYFCALGPITTVVYVMDAWGQGTSVTVSS VL: DIQMTQSPSFLSASVGDRVTINCKASQNINKYLNWYQQKLGEAPKRLIYNTNNLQTDIPSRFSGSGSGADYTLTINSLQPEDFATYFCLQHNSFPYTFGAGTKLELK	7.87
RNF43-170 (antibody, V domains shown, Rat clone; VH/VL only) VH: EVQLVESGGGLVPPGRSLKLSCVASGFTFNDYYMAWVRQAPTKGLEWVASISYEGRRTYYGDSVKGRFTISRDNAKSTLYLQMNSLRSDDTATYYCATHSNYIFDYWGQGVMVTVSS VL: DIRMTQSPASLSASLGETVNIECLASEDIYSDFAWFQQKPGQSPLLLIYNGNSLQNGVPSRFSGSGSGTQYSLKINSLQSEDVATYFCQQYNNYPPTFGGGTKLELK	7.12
